Test: passive permeability, PAMPA, ADME assay (AID 1508612)
Conditions: pH 7.4, 30.0 min, 50.0 µM
METRIC NAME: Papp (×10⁻⁶ cm/s)
Write the answer as a number in ×10⁻⁶ cm/s, unit excluded.

Examples with their reported Papp follow.
OCc1ccc(-c2cc3c(ccn3Cc3cccnc3)c(C3=CCOCC3)n2)cc1; 478
O=C(NC1CC1)C1CCCN1C(=O)c1cccc(-c2ccccn2)c1 (stereo not given); 11
CCCNC(=O)Nc1ccc(Oc2ncnc3cc(OC)c(OC)cc23)cc1Cl; 362
O=S(=O)(Nc1ccccc1)c1ccc(NCc2ccc(Br)cc2O)cc1; 537
O=[S+]([O-])(Nc1ccc(C2CCNCC2)cc1)c1ccc(NCc2ccc(Br)cc2O)cc1; 6.3

Please look at the following compound next.
// field: Papp; key: Nc1c(-c2ccncc2)cc[nH]c1=O ; value = 3.1

----------
Test: passive permeability, PAMPA, ADME assay (AID 1508612)
Settings: pH 7.4, 30.0 min, 50.0 µM
Each entry below carries its reported Papp.

The compound NC(=O)C1CCN(c2nc(-c3ccc(Oc4ccccc4)cc3)cs2)CC1 showed Papp equal to 953 ×10⁻⁶ cm/s

Papp in this record for O=[S+]([O-])(Nc1nccs1)c1ccc(NCc2cc(F)cc(Cl)c2O)cc1 : 18.1 ×10⁻⁶ cm/s

The compound listed as Cc1ccc(S(=O)(=O)NCc2ccccc2)cc1 has a reported Papp of 537 ×10⁻⁶ cm/s

Papp for OCCNc1ncnc2c1ncn2[C@@H]1O[C@@H](CO)[C@H](O)[C@@H]1O is < 1 ×10⁻⁶ cm/s

Lab note: COC[C@@H]1CN(C(=O)c2nn(C)c3ccccc23)C[C@H]1c1nc(C)no1 gave Papp of 165 ×10⁻⁶ cm/s

response.value for C[C@@H](c1ccc2nccn2c1)n1nnc2ncc(-c3cnn(C)c3)nc21 (field: Papp) = 40.7 ×10⁻⁶ cm/s

----------
Measured Papp values are reported for all entries that follow.
Test: passive permeability, PAMPA, ADME assay (AID 1508612)
Settings: pH 7.4, 30.0 min, 50.0 µM
The figure you give is taken to be in ×10⁻⁶ cm/s; do not add the unit.

Observe how each entry below is paired with its result.
O=C(NCCCCc1ccccc1)C1CCN(c2nc(-c3ccc(Br)cc3)cs2)CC1; 5.3
Cc1cc(Cl)ccc1COc1ccnn1-c1cc(C(=O)O)ccn1; 5.16
CCOC(=O)C1=C(C)NC(=O)CC1C(=O)Nc1cc(Cl)cc(Cl)c1 (stereo not given); 599

Entry under test: COCCN1CCNc2nc(COc3ccc(C(C)C)cc3)n(Cc3ccccc3)c2C1=O . Its Papp was 12

----------
Experiment: passive permeability, PAMPA, ADME assay (AID 1508612)
Settings: pH 7.4, 30.0 min, 50.0 µM
Label rule, in plain words: Papp of 30 ×10⁻⁶ cm/s and up is Satisfied, under 30 ×10⁻⁶ cm/s is Not satisfied.

Record excerpt, results attached:
Cc1ccc(S(=O)(=O)Nc2ccc(OC(F)(F)F)cc2C(=O)Nc2nc(-c3ccccc3)cs2)cc1; Not satisfied
CCCCOc1ccccc1C(=O)Nc1ccccc1C(=O)Nc1cccc(S(=O)(=O)C(F)(F)F)c1; Not satisfied
COc1cc2c(c(OC)c1OC)-c1ccc(OC)c(=O)cc1[C@@H](NC(C)=O)CC2; Not satisfied
O=C(Nc1ccc2oc(-c3ccccc3F)nc2c1)c1ccc([N+](=O)[O-])o1; Satisfied
COc1cccc(CNc2ccc(S(=O)(=O)Nc3nccs3)cc2)c1; Satisfied
Cc1cc(NC(=S)N2CCN(c3cccc(C(F)(F)F)c3)CC2)nc2ccccc12; Satisfied
Cc1ccccc1C(=O)N1CCc2cc(N3CCC(NC(=O)Cc4ccccc4)C3)ccc21 (stereo not given); Satisfied
O=C(NCC1CCN(Cc2cccc(Cl)c2)CC1)Nc1ccc(F)c(Cl)c1; Satisfied
Cc1ccc(-c2cc(C(=O)Nc3ncco3)c3ccccc3n2)cc1C; Satisfied

Then this molecule:
Query: # bool: Papp of Cc1ccc(S(=O)(=O)Nc2cnccc2C(=O)Nc2nc(-c3cccc(Cl)c3)cs2)cc1 >= 30 ×10⁻⁶ cm/s
Reply: Satisfied
